These entries and their values trace back to paper PMC5099547.

# assay text: Edoxaban-cyclosporine drug interaction study, plasma pharmacokinetics
# assay conditions: human, in vivo, 60 mg
reported metric: Tmax

Item CN1CCc2nc(C(=O)N[C@@H]3C[C@@H](C(=O)N(C)C)CC[C@@H]3NC(=O)C(=O)Nc3ccc(Cl)cn3)sc2C1 : provide Tmax
1.5 h

---

# assay text: Edoxaban-erythromycin drug interaction study, plasma pharmacokinetics
# assay conditions: human, in vivo, po, 60 mg
reported metric: Cmax (ng/mL)
Express it in ng/mL; write the number only.

Item CN1CCc2nc(C(=O)N[C@@H]3C[C@@H](C(=O)N(C)C)CC[C@@H]3NC(=O)C(=O)Nc3ccc(Cl)cn3)sc2C1 [Edoxaban] : provide Cmax
259

---

# assay text: Edoxaban-cyclosporine drug interaction study, plasma pharmacokinetics
# assay conditions: human, in vivo, 60 mg
reported metric: AUC(0-inf) (ng·h/mL)
Express it in ng·h/mL; write the number only.

Item CN1CCc2nc(C(=O)N[C@@H]3C[C@@H](C(=O)N(C)C)CC[C@@H]3NC(=O)C(=O)Nc3ccc(Cl)cn3)sc2C1 : provide AUC(0-inf)
1830

---

# assay text: Edoxaban-ketoconazole drug interaction study, plasma pharmacokinetics
# assay conditions: human, in vivo, 60 mg
reported metric: half-life

Item CN1CCc2nc(C(=O)N[C@@H]3C[C@@H](C(=O)N(C)C)CC[C@@H]3NC(=O)C(=O)Nc3ccc(Cl)cn3)sc2C1 : provide half-life
11.9 h

---

# assay text: Edoxaban-ketoconazole drug interaction study, plasma pharmacokinetics
# assay conditions: human, in vivo, 60 mg
reported metric: AUC(0-inf) (µg·h/mL)
Express it in µg·h/mL; write the number only.

Item CN1CCc2nc(C(=O)N[C@@H]3C[C@@H](C(=O)N(C)C)CC[C@@H]3NC(=O)C(=O)Nc3ccc(Cl)cn3)sc2C1 : provide AUC(0-inf)
1.65
